assay: Half life in mouse; type: ADME, organism-based; conditions: in vivo
measured-metric: half-life
Lab note: write values as number then unit, every time.

Challenge: Report half-life for O=C1NC(=O)N(c2cccc3ccccc23)C(=O)/C1=C\c1c[nH]c2ccccc12 please.
Response given: 4.1 h

====

assay: Volume of distribution in mouse; type: ADME, organism-based; conditions: in vivo
measured-metric: Vd (L/kg)
All answers are understood in L/kg, so give the number only.

Challenge: // query Vd value for entry O=C1NC(=O)N(c2cccc3ccccc23)C(=O)/C1=C\c1c[nH]c2ccccc12
Response given: 24.8
